Biological target: CYP17 (human testicular microsome) (Homo sapiens, UniProt P05093)
Construct: using microsomal fraction from human testis (Celsis Cat #S00110) as the enzyme source; tissue Celsis S00110; host or cells: human testis microsomal fraction
Sequence (P05093 whole entry): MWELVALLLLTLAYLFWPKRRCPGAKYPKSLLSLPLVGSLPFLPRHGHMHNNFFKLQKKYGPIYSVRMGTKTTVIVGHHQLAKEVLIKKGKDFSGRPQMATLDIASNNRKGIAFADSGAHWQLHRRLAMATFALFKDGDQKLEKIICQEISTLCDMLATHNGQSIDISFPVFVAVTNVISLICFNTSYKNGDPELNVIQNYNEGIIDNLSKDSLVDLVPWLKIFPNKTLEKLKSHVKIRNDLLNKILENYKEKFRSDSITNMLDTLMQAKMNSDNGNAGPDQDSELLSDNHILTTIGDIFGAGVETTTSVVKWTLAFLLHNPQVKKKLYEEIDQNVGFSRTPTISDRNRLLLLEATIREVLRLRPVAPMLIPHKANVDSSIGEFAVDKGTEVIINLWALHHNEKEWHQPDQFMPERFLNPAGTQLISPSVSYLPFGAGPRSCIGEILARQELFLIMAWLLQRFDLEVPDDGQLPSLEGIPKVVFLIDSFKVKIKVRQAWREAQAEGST
Experiment: CYP17 enzymatic assay (% inhibition at 1 nM) (Biological Example 12)
Format: biochemical
Details: compound at 1 nM, read-out: CYP17 enzymatic assay % inhibition at 1 nM (Biological Example No. 12)
Each entry below lists one item and its recorded inhibition at 0.001 µM value.
Reported endpoint: inhibition at 0.001 µM

chemical_string=Cc1cncc(C2=CC[C@H]3[C@@H]4CC=C5C[C@H](NC(=O)C6CC6)CC[C@]5(C)[C@H]4CC[C@]23C)c1 reported_endpoint="inhibition at 0.001 µM" endpoint_value="> 50%"
chemical_string=C[C@]12CC[C@@H](NS(=O)(=O)C3CC3)CC1=CC[C@@H]1[C@@H]2CC[C@]2(C)C(c3cccnc3)=CC[C@@H]12 reported_endpoint="inhibition at 0.001 µM" endpoint_value="10 to 50%"
chemical_string=CCc1ccncc1C1=CC[C@H]2[C@@H]3CC[C@H]4CC(=O)NCC[C@]4(C)[C@H]3CC[C@]12C reported_endpoint="inhibition at 0.001 µM" endpoint_value="10 to 50%"
